target: human DGKζ (Homo sapiens); construct: TVMV protease cleavage site (C); Hexa-His (C); made in house; host or cells: Sf9 insect cells (baculovirus, Bac-to-Bac); assay: DGKζ LIPGLO assay (extruded liposome substrate), in vitro DGK inhibition; assay type: biochemical; details: liposome (LIPGLO) assay; read-out: DGKz LIPGLO IC50
pIC50: −log10 of the molar value.
quantity.kind: pIC50

molecule	pIC50
C[C@@H]1CN(c2c(C#N)c(=O)n(C)c3ccc(C#N)nc23)CCN1C(c1ccc(F)cc1)c1nc(C2CC2)no1 (single isomer, unassigned) [Example 1030]	5.96
Cc1ccc(C(c2ccc(C#N)cc2)N2C[C@H](C)N(c3cc(=O)n(C)c4ccc(C#N)nc34)C[C@H]2C)nc1 (stereo partly drawn) [Example 453]	6.00
CC[C@H]1CN(C(c2cccc(F)c2)c2ccc(C)cn2)[C@H](C)CN1c1cc(=O)n(C)c2ccc(C#N)nc12 (single isomer, unassigned) [Example 1125]	5.82

1 = COc1ccc(C(c2ccc(F)cc2)N2C[C@H](C)N(c3cc(=O)n(C)c4ccc(C#N)nc34)C[C@H]2C)cc1 (stereo partly drawn) [Example 658]
2 = CC[C@@H]1CN(c2cc(=O)n(C)c3ccc(C#N)nc23)[C@@H](C)CN1C(C)c1ccc(F)c(F)c1 (single isomer, unassigned) [Example 1092]
Query: Compare pIC50: is it lower for 1 or for 2 ? Indicate which entry you chose by stating its label.
Response: 2

###

molecular target: human DGKα (Homo sapiens); construct: TVMV protease cleavage site (C); Hexa-His (C); made in house; host or cells: Sf9 insect cells (baculovirus, Bac-to-Bac); test: DGKα LIPGLO assay (extruded liposome substrate), in vitro DGK inhibition; type: biochemical; conditions: liposome (LIPGLO) assay; read-out: DGKa LIPGLO IC50
Sequence (P23743 with tags, fused parts or gaps): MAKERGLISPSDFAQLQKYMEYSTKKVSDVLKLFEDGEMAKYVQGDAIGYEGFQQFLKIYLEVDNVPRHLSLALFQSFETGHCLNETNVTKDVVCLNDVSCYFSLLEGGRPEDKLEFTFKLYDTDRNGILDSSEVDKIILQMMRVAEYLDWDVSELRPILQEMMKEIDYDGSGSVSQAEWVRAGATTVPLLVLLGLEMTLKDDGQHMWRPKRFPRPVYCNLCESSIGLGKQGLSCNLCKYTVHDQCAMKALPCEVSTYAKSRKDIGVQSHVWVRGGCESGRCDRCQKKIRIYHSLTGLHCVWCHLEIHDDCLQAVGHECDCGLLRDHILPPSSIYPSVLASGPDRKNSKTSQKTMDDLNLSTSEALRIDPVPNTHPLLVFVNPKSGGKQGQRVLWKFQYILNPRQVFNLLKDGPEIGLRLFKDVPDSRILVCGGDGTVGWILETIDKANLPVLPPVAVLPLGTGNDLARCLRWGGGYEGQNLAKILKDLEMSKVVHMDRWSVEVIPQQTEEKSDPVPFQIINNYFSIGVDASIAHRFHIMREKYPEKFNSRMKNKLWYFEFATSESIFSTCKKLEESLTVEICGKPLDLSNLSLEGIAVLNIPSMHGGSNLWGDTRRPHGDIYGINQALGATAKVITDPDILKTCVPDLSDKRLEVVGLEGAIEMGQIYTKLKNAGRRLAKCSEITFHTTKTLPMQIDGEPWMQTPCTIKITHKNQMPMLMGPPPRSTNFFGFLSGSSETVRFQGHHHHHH
pIC50: −log10 of the molar value.
quantity.kind: pIC50

compound	pIC50
COC[C@@H]1CN(c2cc(=O)n(C)c3ccc(C#N)nc23)[C@@H](C)CN1C(c1ccc(F)cc1)c1nc(C2CC2)no1 (some centres unmarked) [Example 1393]	7.66
COc1cc(F)ccc1C(c1ccc(F)cc1)N1C[C@H](C)N(c2c(C#N)c(=O)n(C)c3ccc(C#N)nc23)C[C@H]1C (single isomer, unassigned) [Example 112]	4.11
COc1cc(C(C)N2C[C@H](C)N(c3cc(=O)n(C)c4ccc(C#N)nc34)C[C@H]2C)ccc1F (single isomer, unassigned) [Example 1231]	5.42
COc1cc(F)ccc1C(N1C[C@H](C)N(c2cc(=O)n(C)c3ccc(C#N)nc23)C[C@H]1C)C(C)(C)C (single isomer, unassigned) [Example 185]	5.36
CC[C@H]1CN(C(C)c2ccc(OC(F)(F)F)cc2)[C@H](CC)CN1c1cc(=O)n(C)c2ccc(C#N)nc12 (single isomer, unassigned) [Example 1053]	7.68
CC[C@@H]1CN(c2cc(=O)n(C)c3ccc(C#N)nc23)[C@@H](C)CN1C(c1ccc(F)cc1)c1ccnc(C)n1 (some centres unmarked) [Example 419]	6.02
C[C@@H]1CN(c2cc(=O)n(C)c3ccc(C#N)nc23)[C@@H](C)CN1C(Cc1nc(C2CC2)no1)c1ccc(F)cc1 (single isomer, unassigned) [Example 1326]	5.92
C[C@H]1CN(C(c2ccc(F)cc2)c2ccc(C(F)(F)F)cn2)[C@H](CO)CN1c1cc(=O)n(C)c2ccc(C#N)nc12 (single isomer, unassigned) [Example 1389]	6.77

P = CC(C)[C@H]1CN(c2cc(=O)n(C)c3ccc(C#N)nc23)CCN1C(c1ccc(F)cc1)c1ccc(F)cc1
Q = C[C@@H]1CN(c2cc(=O)n(C)c3ccc(C#N)nc23)[C@@H](C)CN1C(c1ccc(F)cc1)c1ccns1 (some centres unmarked) [Example 720]
Query: Form field 'greater pIC50' accepts P or Q ; which applies? Indicate which entry you chose by stating its label.
Response: Q
(Q: 5.96, P: 4.01)

P = CC(c1cc(C2CC2)on1)N1C[C@H](C)N(c2cc(=O)n(C)c3ccc(C#N)nc23)C[C@H]1C (single isomer, unassigned) [Example 1282]
Q = COc1ccc2c(n1)c(N1C[C@@H](C)N(C(c3ccccc3)c3ccc(F)cc3)C[C@@H]1C)cc(=O)n2C (single isomer, unassigned) [Example 239]
R = CC(c1cccc2ncccc12)N1C[C@H](C)N(c2cc(=O)n(C)c3ccc(C#N)nc23)C[C@H]1C (single isomer, unassigned) [Example 638]
S = C[C@@H]1CN(c2cc(=O)n(C)c3ccc(C#N)nc23)[C@@H](C)CN1C(c1ccc(F)cc1)C(C)(C)O (single isomer, unassigned) [Example 1308]
Query: Sort ascending by pIC50. Sort the labels as requested; that list is your answer.
Response: R, S, Q, P
(R: 3.96, S: 4.70, Q: 5.23, P: 5.85)

P = Cn1c(=O)c(Cl)c(N2CCN(C(c3ccc(F)cc3)c3ccc(F)cc3)C(CO)C2)c2nc(C#N)ccc21 (single isomer, unassigned) [Example 100]
Q = C[C@@H]1CN(c2cc(=O)n(C)c3ccc(C#N)nc23)[C@@H](C)CN1C(c1cccc(F)c1)c1ccc(C(F)(F)F)cn1 (single isomer, unassigned) [Example 371]
R = CC[C@H]1CN(C(c2ccc(F)cc2)c2cc(C3CC3)on2)[C@H](CC)CN1c1cc(=O)n(C)c2ccc(C#N)nc12 (single isomer, unassigned) [Example 1075]
Query: Sort ascending by pIC50. Sort the labels as requested; that list is your answer.
Response: Q, P, R
(Q: 5.52, P: 5.72, R: 7.96)

###

system: Human venous whole blood; assay: Human whole blood IFN-γ assay; assay type: cell-based; conditions: human whole blood; normalized to 3 μM reference compound with anti-CD3 plus anti-CD28 as 100% activation; TFA; read-out: INFg Whole Blood Normalized Agonist EC50;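 note: blood from healthy donors exposed to compound for 1 h before stimulation with anti-CD3 and anti-CD28 at 1 µg/mL each, IFN-γ quantified in supernatant by AlphaLISA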
Structures can show the parent of a compound that is named as a salt.
quantity.kind: EC50 (µM)
API: value field is a number in µM; no unit string.

Query: Using the record for C[C@@H]1CN(c2cc(=O)n(C)c3ccc(C#N)nc23)[C@@H](C)CN1C(c1ccccc1)c1c(F)cccc1F (single isomer, unassigned) [Example 273, TFA] , report its EC50.
Response: 7.1

###

molecular target: human DGKζ (Homo sapiens); construct: TVMV protease cleavage site (C); Hexa-His (C); made in house; host or cells: Sf9 insect cells (baculovirus, Bac-to-Bac); assay: DGKζ LIPGLO assay (extruded liposome substrate), in vitro DGK inhibition; type: biochemical; settings: DGKζ liposome (LIPGLO) assay; read-out: DGKz LIPGLO IC50
quantity.kind: IC50 (nM)

compound	units.symbol	IC50
Cc1cc(C(c2ccc(F)cc2)N2C[C@H](C)N(c3c(C#N)c(=O)n(C)c4ccc(C#N)nc34)C[C@H]2C)no1 (single isomer, unassigned) [Example 864]	nM	1000

A = C[C@@H]1CN(c2c(C#N)c(=O)n(C)c3ccc(C#N)nc23)CCN1C(c1ccc(F)cc1)c1cccc(C(F)(F)F)n1 (single isomer, unassigned) [Example 921]
B = Cc1ccc(C(c2ccc(Cl)cn2)N2CCN(c3c(C#N)c(=O)n(C)c4ccc(C#N)nc34)C[C@H]2C)cc1 (single isomer, unassigned) [Example 937]
Query: Form field 'greater IC50' accepts A or B ; which applies? Indicate which entry you chose by stating its label.
Response: A

###

biological target: human DGKζ (Homo sapiens, UniProt Q13574); construct: TVMV protease cleavage site (C); Hexa-His (C); made in house; host or cells: Sf9 insect cells (baculovirus, Bac-to-Bac); assay: DGKζ LIPGLO assay (extruded liposome substrate), in vitro DGK inhibition; assay type: biochemical; settings: liposome (LIPGLO) assay; read-out: DGKz LIPGLO IC50
Sequence (Q13574 with tags, fused parts or gaps isoform Q13574-4): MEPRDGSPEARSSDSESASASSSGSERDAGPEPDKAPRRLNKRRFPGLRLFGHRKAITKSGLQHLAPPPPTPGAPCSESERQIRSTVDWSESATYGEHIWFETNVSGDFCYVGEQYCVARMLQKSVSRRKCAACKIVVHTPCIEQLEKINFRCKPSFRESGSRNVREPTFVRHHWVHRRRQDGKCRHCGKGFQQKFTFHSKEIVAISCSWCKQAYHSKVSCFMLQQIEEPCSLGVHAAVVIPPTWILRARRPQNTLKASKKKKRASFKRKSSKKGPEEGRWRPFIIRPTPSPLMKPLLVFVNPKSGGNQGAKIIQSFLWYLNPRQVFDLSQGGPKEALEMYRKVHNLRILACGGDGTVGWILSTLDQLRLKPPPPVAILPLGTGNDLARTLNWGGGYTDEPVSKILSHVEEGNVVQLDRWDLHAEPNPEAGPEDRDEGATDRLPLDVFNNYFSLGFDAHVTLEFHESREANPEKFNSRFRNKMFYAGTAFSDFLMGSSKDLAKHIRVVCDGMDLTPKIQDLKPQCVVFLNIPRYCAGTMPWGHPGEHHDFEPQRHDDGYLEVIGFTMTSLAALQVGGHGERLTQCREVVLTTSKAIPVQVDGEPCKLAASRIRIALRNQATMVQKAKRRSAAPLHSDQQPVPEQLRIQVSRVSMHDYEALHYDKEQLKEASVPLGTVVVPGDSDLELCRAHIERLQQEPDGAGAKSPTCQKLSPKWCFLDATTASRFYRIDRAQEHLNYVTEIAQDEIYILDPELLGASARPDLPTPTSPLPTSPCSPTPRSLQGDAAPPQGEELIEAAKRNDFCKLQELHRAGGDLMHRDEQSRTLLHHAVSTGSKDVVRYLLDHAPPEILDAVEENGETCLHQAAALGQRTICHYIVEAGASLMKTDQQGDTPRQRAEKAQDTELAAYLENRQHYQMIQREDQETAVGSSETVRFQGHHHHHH
pIC50: −log10 of the molar value.
quantity.kind: pIC50

Sample answers from the record:
compound	endpoint.value
CC[C@H]1CN(C(c2ccc(F)cc2)c2ccc(C#N)cc2)[C@H](COC)CN1c1cc(=O)n(C)c2ccc(C#N)nc12 (single isomer, unassigned) [Example 1171]	6.46
CC(c1ccc(F)c(Cl)c1)N1C[C@H](C)N(c2cc(=O)n(C)c3ccc(C#N)nc23)C[C@H]1C (single isomer, unassigned) [Example 1256]	6.74
CC[C@@H]1CN(c2cc(=O)n(C)c3ccc(C#N)nc23)[C@@H](C)CN1C(c1ccc(Cl)cc1)c1ccccn1 (single isomer, unassigned) [Example 422]	7.05

A = CC(c1ccc(OC(F)(F)F)cc1)N1C[C@H](CO)N(c2cc(=O)n(C)c3ccc(C#N)nc23)C[C@H]1C (single isomer, unassigned) [Example 1419]
B = CCc1cc(F)ccc1C(c1ccc(Cl)cc1)N1C[C@H](C)N(c2cc(=O)n(C)c3ccc(OC)nc23)C[C@H]1C (single isomer, unassigned) [Example 232]
Query: Compare pIC50: is it lower for A or for B ? Indicate which entry you chose by stating its label.
Response: B
(B: 5.77, A: 6.17)
